Experiment: Viscosity in aqueous solution at 20° C. (Example 82, Tables 1 and 2)
Assay type: physicochemical
Details: calculated for 350 mgI/ml
Protocol: The viscosities in aqueous solution at 20° C. for some further compounds described above were determined and are listed in Table 2. […]
REPORTED METRIC: Viscosity 350 mgI/ml (CALCULATED) (mPas)

Here's what some known entries look like.
> print(dat)
                                   molecule                    reported.metric  unit.spec  measured
1  O=C(CO)N(CC(O)CO)c1c(I)c(CC(O)CO)c(I)c(N(CC(O)CO)C(=O)CO)c1I (stereo not shown) [Example 75]  Viscosity 350 mgI/ml (CALCULATED)       mPas      14.6
2  O=C(CO)Nc1c(I)c(CO)c(I)c(N(CCO)C(=O)CO)c1I [Example 5]  Viscosity 350 mgI/ml (CALCULATED)       mPas       6.9
3  O=C(NCC(O)CO)c1c(I)c(CO)c(I)c(N(CC(O)CO)C(=O)CO)c1I (stereo not shown) [Example 26]  Viscosity 350 mgI/ml (CALCULATED)       mPas       9.4

(1) O=C(CO)Nc1c(I)c(CC(O)CO)c(I)c(NC(=O)CO)c1I (stereo not shown) [Example 71]
(2) O=C(NC(CO)C(O)CO)c1c(I)c(CO)c(I)c(N(CC(O)CO)C(=O)CO)c1I (stereo not shown) [Example 36]
Ask | Endpoint returns whichever of 1 and 2 has the numerically higher Viscosity 350 mgI/ml (CALCULATED). Could you answer with the label of the item you picked?
Reply | 2
(2: 10.6 mPas, 1: 6.0 mPas)

----------
experiment: Viscosity at 37° C. (Table 3); assay type: physicochemical; details: 379 mgI/ml
REPORTED METRIC: Viscosity 37° C. (mPa·s)
Give a bare numeral; the unit mPa·s is implied.

Ask | Report Viscosity 37° C. for O=C(Nc1c(I)c(CO)c(I)c(NC(=O)C(O)C(O)CO)c1I)C(O)C(O)CO (stereo not shown) [Example 79] please.
Reply | 6.9

----------
assay: Viscosity at 37° C. (Table 3); type: physicochemical; details: 376 mgI/ml
REPORTED METRIC: Viscosity 37° C. (mPa·s)
Give a bare numeral; the unit mPa·s is implied.

Ask | Report Viscosity 37° C. for O=C(NC(CO)C(O)CO)c1c(I)c(CO)c(I)c(NC(=O)C(O)C(O)CO)c1I (stereo not shown) please.
Reply | 8.9

----------
assay: Viscosity at 37° C. (Table 3); format: physicochemical; settings: 444 mgI/ml
REPORTED METRIC: Viscosity 37° C. (mPa·s)
Give a bare numeral; the unit mPa·s is implied.

Ask | Report Viscosity 37° C. for O=C(NCC(O)CO)c1c(I)c(CO)c(I)c(NC(=O)C(O)C(O)CO)c1I (stereo not shown) please.
Reply | 11

----------
assay: Viscosity at 37° C. (Table 3); assay type: physicochemical; settings: calculated for 350 mgI/ml
REPORTED METRIC: Viscosity at 350 mgI/ml (CALCULATED) (mPa·s)

> print(dat)
                                   compound  measured
1  O=C(NCC(O)CO)c1c(I)c(CO)c(I)c(NC(=O)C(O)C(O)CO)c1I (stereo not drawn)       5.2
2  O=C(NC(CO)C(O)CO)c1c(I)c(CO)c(I)c(NC(=O)C(O)C(O)CO)c1I (stereo not drawn)       6.1
3  O=C(Nc1c(I)c(CO)c(I)c(NC(=O)C(O)C(O)CO)c1I)C(O)C(O)CO (stereo not drawn)       5.9

src = patent US6448442B1
